Target: acetylcholine muscarinic M1 receptor (hM1) (Homo sapiens, UniProt P11229)
Construct: expressed in transfected cells; host or cells: CHOnfat cells (CHO, NFAT reporter background), Geneticin-selected; b186 also calls them CHOK1/hM1
Sequence (P11229 whole entry): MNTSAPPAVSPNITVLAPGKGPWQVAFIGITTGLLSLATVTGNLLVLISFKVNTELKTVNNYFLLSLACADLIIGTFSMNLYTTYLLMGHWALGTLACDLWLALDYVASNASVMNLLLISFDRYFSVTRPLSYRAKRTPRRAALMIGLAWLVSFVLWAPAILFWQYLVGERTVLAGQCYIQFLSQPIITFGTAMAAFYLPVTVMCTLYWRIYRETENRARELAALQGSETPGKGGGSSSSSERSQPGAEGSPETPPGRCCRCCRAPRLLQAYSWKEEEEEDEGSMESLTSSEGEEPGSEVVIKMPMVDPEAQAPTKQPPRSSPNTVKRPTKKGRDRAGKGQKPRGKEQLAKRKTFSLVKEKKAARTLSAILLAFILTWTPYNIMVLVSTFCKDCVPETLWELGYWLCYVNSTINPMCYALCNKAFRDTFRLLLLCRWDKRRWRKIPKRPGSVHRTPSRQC
Experiment: muscarinic FLIPR assay: intracellular calcium in CHOnfat/hM1 cells, potentiation of EC20 acetylcholine
Assay type: cell-based
Settings: Table 1, EC20 acetylcholine (3 nM final), read-out: H Pot.
Experimental: The assay studies the effect of one or several concentrations of test compounds on basal or acetylcholine-stimulated Ca^2+ levels using FLIPR. Compounds are prepared and subjected to a preincubation period of 4 min. Thereafter, a single EC20 concentration of acetylcholine is added to each well (3 nM final). The intracellular Ca^2+ level of each sample is measured and compared to an acetylcholine control to determine any modulatory activity. […]
pEC50: −log10 of the molar value.

[
  {
    "molecule": "O=C(N[C@H]1CCOC[C@@H]1O)c1cc(Cc2cnc3ccccc3c2)c2c(n1)CCCC2",
    "pEC50": 7.96
  },
  {
    "molecule": "O=C(N[C@H]1CCCC[C@@H]1O)c1cc(Cc2ccc(-c3cccnc3)nc2)c2c(n1)CCCC2",
    "pEC50": 7.82
  },
  {
    "molecule": "CC(=O)N1CCC(Cc2cc(C(=O)N[C@H]3CCOC[C@@H]3O)nc3c2CCCC3)CC1",
    "pEC50": 5.65
  },
  {
    "molecule": "O=C(N[C@H]1CCOC[C@@H]1O)c1cc(Cc2ccc(-c3cccnc3)nc2)c2c(n1)CCCC2",
    "pEC50": 7.96
  },
  {
    "molecule": "O=C(N[C@H]1CCCC[C@@H]1O)c1cc(Cc2ccc(-c3ccccc3)nc2)c2c(n1)CCCC2",
    "pEC50": 7.59
  },
  {
    "molecule": "COc1ccc(-c2ccc(Cc3cc(C(=O)N[C@H]4CCCC[C@@H]4O)nc4c3CCCC4)cn2)cn1",
    "pEC50": 7.74
  },
  {
    "molecule": "COc1cc(Cc2cc(C(=O)N[C@H]3CCOC[C@@H]3O)nc3c2CCCC3)ccn1",
    "pEC50": 6.92
  },
  {
    "molecule": "Cc1cncc(-c2ccc(Cc3cc(C(=O)N[C@H]4CCOC[C@@H]4O)nc4c3CCCC4)cn2)c1",
    "pEC50": 8.22
  },
  {
    "molecule": "O=C(N[C@H]1CCCC[C@@H]1O)c1cc(Cc2ccc(-c3ccc(F)nc3)nc2)c2c(n1)CCCC2",
    "pEC50": 7.44
  },
  {
    "molecule": "Cc1ccc(-c2ccc(Cc3cc(C(=O)N[C@H]4CCOC[C@@H]4O)nc4c3CCCC4)cn2)cn1",
    "pEC50": 8.15
  },
  {
    "molecule": "O=C(NC1CCOCC1O)c1cc(Cc2ccn3ccnc3c2)c2c(n1)CCCC2 (stereo not drawn)",
    "pEC50": 7.10
  },
  {
    "molecule": "O=C(N[C@H]1CCOC[C@@H]1O)c1cc(Cc2ccnc3ccccc23)c2c(n1)CCCC2",
    "pEC50": 7.48
  },
  {
    "molecule": "O=C(N[C@H]1CCCC[C@@H]1O)c1cc(Cc2ccc(Cl)nc2)c2c(n1)CCCC2",
    "pEC50": 6.89
  },
  {
    "molecule": "CC(C)(C)OC(=O)N1CC=C(Cc2cc(C(=O)N[C@H]3CCOC[C@@H]3O)nc3c2CCCC3)CC1",
    "pEC50": 6.21
  },
  {
    "molecule": "O=C(N[C@H]1CCOC[C@@H]1O)c1cc(Cc2ccc(-c3cncc(F)c3)nc2)c2c(n1)CCCC2",
    "pEC50": 7.64
  },
  {
    "molecule": "COc1ccc(-c2ccc(Cc3cc(C(=O)N[C@H]4CCOC[C@@H]4O)nc4c3CCCC4)cn2)cn1",
    "pEC50": 7.77
  },
  {
    "molecule": "COc1cncc(-c2ccc(Cc3cc(C(=O)N[C@H]4CCOC[C@@H]4O)nc4c3CCCC4)cn2)c1",
    "pEC50": 8.15
  },
  {
    "molecule": "O=C(N[C@H]1CCOC[C@@H]1O)c1cc(Cc2ccc(-c3ccc(F)nc3)nc2)c2c(n1)CCCC2",
    "pEC50": 7.82
  }
]
